- Test system: U-937
- assay-overview: Antiproliferative activity against human U-937 cells assessed as reduction cell viability incubated for 48 hrs by MTT assay
- Assay type: functional, cell-based
- condition-summary: U-937, 48 h
pIC50: −log10 of the molar value.
measured-parameter: pIC50

structure-smiles	measured-parameter	value-measured
O=C(Nc1ccc(Nc2ccnc3ccccc23)cc1)c1cccc(Nc2ccnc3ccccc23)c1	pIC50	6.15
O=C(Nc1cccc(Nc2ccnc3ccccc23)c1)c1cccc(Nc2ccnc3ccccc23)c1	pIC50	5.82
O=C(Nc1ccc(NC(=O)c2ccc(Nc3ccnc4ccccc34)cc2)cc1)OCc1ccccc1	pIC50	6.40

----------
pIC50 by entry:
- tgt: DNA topoisomerase 1 (Homo sapiens, UniProt P11387)
- Sequence (P11387 whole entry): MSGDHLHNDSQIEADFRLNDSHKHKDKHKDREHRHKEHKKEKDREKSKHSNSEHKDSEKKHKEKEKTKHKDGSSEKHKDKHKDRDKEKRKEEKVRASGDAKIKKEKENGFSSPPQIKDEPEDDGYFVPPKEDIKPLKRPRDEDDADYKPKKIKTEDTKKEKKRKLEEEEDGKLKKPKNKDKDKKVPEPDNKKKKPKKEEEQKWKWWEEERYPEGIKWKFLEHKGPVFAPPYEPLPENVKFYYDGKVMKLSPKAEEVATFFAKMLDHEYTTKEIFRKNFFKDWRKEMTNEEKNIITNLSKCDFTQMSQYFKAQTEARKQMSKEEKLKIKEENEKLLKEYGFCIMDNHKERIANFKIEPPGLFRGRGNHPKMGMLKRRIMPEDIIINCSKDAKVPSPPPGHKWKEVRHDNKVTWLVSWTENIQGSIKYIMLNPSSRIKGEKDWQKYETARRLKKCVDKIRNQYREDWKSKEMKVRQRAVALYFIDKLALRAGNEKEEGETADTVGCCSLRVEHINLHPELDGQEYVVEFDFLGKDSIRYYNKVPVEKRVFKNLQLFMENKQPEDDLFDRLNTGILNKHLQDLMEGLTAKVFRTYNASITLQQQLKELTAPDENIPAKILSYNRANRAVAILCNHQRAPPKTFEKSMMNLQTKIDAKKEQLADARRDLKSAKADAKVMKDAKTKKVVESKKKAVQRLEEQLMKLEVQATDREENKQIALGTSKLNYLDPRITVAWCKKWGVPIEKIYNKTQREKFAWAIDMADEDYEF
- assay-overview: Inhibition of topoisomerase 1 (unknown origin)
pIC50: −log10 of the molar value.
measured-parameter: pIC50

structure-smiles	value-measured
CN(C)CCNc1nc2cc(O)ccc2c2c1C(=O)c1ccccc1-2	5.70
CN(C)CCCO/N=C1\c2cc(OCCCN(C)C)ccc2-c2cnc3ccccc3c21	5.58
